assay: LNP average particle size and polydispersity by dynamic light scattering; assay type: physicochemical; settings: Table 3, Experiments 1-13; LNP 50% ionizable lipid, 38% cholesterol, 9% DSPC, 3% PEG2K-DMG; sgRNA:mRNA 1:2
Class assignment keyed on Number mean, ranges small value: < 70 nm; mid value: ≥ 70 nm and < 80 nm; large value: ≥ 80 nm

CCCCCCCCC(CCCCCCCC)OC(=O)CCCC(=O)OCC(C)(COC(=O)CCCC(=O)OC(CCCCCCCC)CCCCCCCC)COC(=O)NCCN(CC)CC: large value

Q: Just checking, what class would you give `CCCCCCCCC(CCCCCCCC)OC(=O)CCCC(=O)OCC(COC(=O)CCCC(=O)OC(CCCCCCCC)CCCCCCCC)COC(=O)NCCN1CCCCC1` here?
Result: small value

Q: What would you report for CCCCC/C=C\C/C=C\CCCCCCCC(=O)OCC(CCCCC(=O)OC(CCCC)CCCC)COC(=O)OCCCN(C)CC (centres unmarked) ?
Result: large value

Q: What would you report for CCCCC/C=C\C/C=C\CCCCCCCC(=O)OCC(CCCCC(=O)OC(CCCC)CCCC)COC(=O)OCCCN(CC)CC (centres unmarked) ?
Result: large value

Q: What would you report for `CCCCCCCCC(CCCCCCCC)OC(=O)CCCC(=O)OCC(COC(=O)CCCC(=O)OC(CCCCCCCC)CCCCCCCC)COC(=O)OCCCN(C)CC` ?
Result: small value

Q: What would you report for CCCCC/C=C\C/C=C\CCCCCCCC(=O)OCC(CCCCC(=O)OC(CCCCCCCC)CCCCCCCC)COC(=O)OCCCN(CC)CC (centres unmarked) ?
Result: small value

###

Experiment: pKa of unformulated amine lipid by TNS fluorescence
Assay type: physicochemical
Settings: sodium phosphate buffer; Table 2; unformulated amine lipid, TNS; read-out: Lipid pKa
Description: The pKa of each amine lipid was determined according to the method in Jayaraman, et al. (Angew Chem Int Ed Engl 51(34), 2012, 8529-8533) with the following adaptations. The pKa was determined for unformulated amine lipid in ethanol. […] The test samples were supplemented with TNS {6-(p-Toluidino)-2-naphthalenesulfonic acid sodium salt}, incubated and the fluorescence intensity was measured using excitation and emission wavelengths of 321 nm and 448 nm, respectively. […]
Measured pKa accompanies every entry in the list below.
Respond with the number and no other words.

Example entries begin here.
CCCCCCCCC(CCCCCCCC)OC(=O)CCCCCC(=O)OCC(COC(=O)CCCCCC(=O)OC(CCCCCCCC)CCCCCCCC)COC(=O)NCCN(CC)CC [Compound 38]: 6.56
CCCCCCCCC(CCCCCCCC)OC(=O)CCCC(=O)OCC(COC(=O)CCCC(=O)OC(CCCCCCCC)CCCCCCCC)COC(=O)OCCCN1CCCCC1 [Compound 32]: 5.7
CCCCC/C=C\C/C=C\CCCCCCCC(=O)OCC(CCCCCCCCC(=O)OCC(CCCC)CCCCCC)COC(=O)OCCCN(CC)CC (stereo not shown) [Compound 7]: 6.09
CCCCC/C=C\C/C=C\CCCCCCCC(=O)OCC(CCCCCCCCC(=O)OC(CCCCCCCC)CCCCCCCCC)COC(=O)CCC(CCCCCCCC)OC(=O)NCCN1CCCC1 (stereo not shown) [Compound 25]: 6.44
CCCCC/C=C\C/C=C\CCCCCCCCC(COC(=O)CCCCCC(=O)OC(CCCCCCCC)CCCCCCCC)COC(=O)NCCN(CC)CC (stereo not shown) [Compound 23]: 6.49

Q: Name the reported pKa value associated with the compound CCCCCCCCC(CCCCCCCC)OC(=O)CCCC(=O)OCC(COC(=O)CCCC(=O)OC(CCCCCCCC)CCCCCCCC)COC(=O)NCCN(CC)CC [Compound 6]
Result: 6.35

Q: What would you report for CCCCCCCCC(CCCCCCCC)OC(=O)CCCC(=O)OCC(COC(=O)CCCC(=O)OC(CCCCCCCC)CCCCCCCC)COC(=O)OCCCN1CCCC1 [Compound 33] ?
Result: 6.5

###

experiment: pKa of unformulated amine lipid by TNS fluorescence; type: physicochemical; details: sodium phosphate buffer; Table 2; unformulated amine lipid, TNS; read-out: Lipid pKa
result-type: pKa

Example entries begin here.
CCCCCCCCC(CCCCCCCC)OC(=O)CCCC(=O)OCC(COC(=O)CCCC(=O)OC(CCCCCCCC)CCCCCCCC)COC(=O)NCCN1CCCC1 [Compound 29]: 7.1
CCCCCCCCC(CCCCCCCC)OC(=O)CCCCCCC(COC(=O)CCCC(=O)OC(CCCCCCCC)CCCCCCCC)COC(=O)OCCCN(CC)CC (stereo not drawn) [Compound 8]: 5.85
CCCCCCCCC(CCCCCCCC)OC(=O)CCCC(=O)OCC(COC(=O)CCCC(=O)OC(CCCCCCCC)CCCCCCCC)COC(=O)CCCN(C)C [Compound 34]: 6.33
CCCCC/C=C\C/C=C\CCCCCCCC(=O)OCC(CCCCCCC(=O)OC(CCCCCCCC)CCCCCCCC)COC(=O)OCCCN(CC)CC (stereo not drawn) [Compound 16]: 5.98

Q: Name the reported pKa value associated with the molecule CCCCC/C=C\C/C=C\CCCCCCCC(=O)OCC(COC(=O)CCCC(=O)OC(CCCCCCCC)CCCCCCCC)COC(=O)N(C)CCN(CC)CC (stereo not drawn) [Compound 49]
Result: 6.38

Q: What would you report for CCCCCCCCC(CCCCCCCC)OC(=O)CCCCCCC(=O)OCC(COC(=O)CCCCCCC(=O)OC(CCCCCCCC)CCCCCCCC)COC(=O)NCCN(CC)CC [Compound 52] ?
Result: 6.47

###

Measured % E (encapsulation efficiency) accompanies every entry in the list below.
assay: LNP encapsulation efficiency of RNA (Ribogreen fluorescence assay); assay type: physicochemical; conditions: Table 3, Experiments 1-13; LNP 50% ionizable lipid, 38% cholesterol, 9% DSPC, 3% PEG2K-DMG; sgRNA:mRNA 1:2
Record the value in %, omitting the unit from your answer.

Example entries begin here.
CCCCC/C=C\C/C=C\CCCCCCCC(=O)OCC(CCCCCCCCC(=O)OC(CCCCCCCC)CCCCCCCCC)COC(=O)CCC(CCCC)OC(=O)NCCN(C)CC (stereo not shown): 98
CCCCCCCCOC(CCC(=O)OCC(COC(=O)NCCN(CC)CC)COC(=O)C(CCCC)CCCCCC)OCCCCCCCC (stereo not shown): 94
CCCCC/C=C\C/C=C\CCCCCCCC(=O)OCC(COC(=O)CCC(OCCCCCCCC)OCCCCCCCC)COC(=O)NCCN(CC)CC (stereo not shown): 88
CCCCCCC(CCCC)COC(=O)CCCCCC(=O)OCC(COC(=O)CCCCCC(=O)OCC(CCCC)CCCCCC)COC(=O)OCCCN(CC)CC (stereo not shown): 97

Q: Name the reported % E (encapsulation efficiency) value associated with the compound CCCCC/C=C\C/C=C\CCCCCCCC(=O)OCC(CCCCCCCCC(=O)OC(CCCCCCCC)CCCCCCCCC)COC(=O)CCC(CCCCCCCC)OC(=O)NCCN(C)CC (stereo not shown)
Result: 98

Q: What would you report for CCCCC/C=C\C/C=C\CCCCCCCC(=O)OCC(CCCCC(=O)OC(CCCC)CCCC)COC(=O)OCCCN(CC)CC (stereo not shown) ?
Result: 96

Q: What would you report for CCCCC/C=C\C/C=C\CCCCCCCC(=O)OCC(CCCCC(=O)OC(CCCC)CCCC)COC(=O)NCCN(CC)CC (stereo not shown) ?
Result: 96

###

assay: LNP average particle size and polydispersity by dynamic light scattering; format: physicochemical; details: Table 3, Experiments 1-13; LNP 50% ionizable lipid, 38% cholesterol, 9% DSPC, 3% PEG2K-DMG; sgRNA:mRNA 1:2
result-type: PDI
Respond with the number and no other words.

Example entries begin here.
CCCCC/C=C\C/C=C\CCCCCCCC(=O)OCC(CCCCCCCCC(=O)OC(CCCCCCCC)CCCCCCCC)COC(=O)NCCN(CC)CC (stereo not shown): 0.04
CCCCC/C=C\C/C=C\CCCCCCCC(=O)OCC(CCCCCCC(=O)OC(CCCCCC)CCCCCC)COC(=O)OCCCN(CC)CC (stereo not shown): 0.01
CCCCC/C=C\C/C=C\CCCCCCCC(=O)OCC(CCCCCCCCC(=O)OC(CCCCCCCC)CCCCCCCCC)COC(=O)CCC(CCCC)OC(=O)NCCN(C)CC (stereo not shown): 0.01
CCCCCCC(CCCC)COC(=O)CCCCCC(=O)OCC(COC(=O)CCCCCC(=O)OCC(CCCC)CCCCCC)COC(=O)OCCCN(CC)CC (stereo not shown): 0.01

Q: Name the reported PDI value associated with the molecule CCCCC/C=C\C/C=C\CCCCCCCC(=O)OCC(CCCCC(=O)OC(CCCC)CCCC)COC(=O)OCCCN(CC)CC (stereo not shown)
Result: 0.01

Q: What would you report for CCCCC/C=C\C/C=C\CCCCCCCC(=O)OCC(CCCCCCCCC(=O)OC(CCCCCCCC)CCCCCCCCC)COC(=O)CCC(CCCCCCCC)OC(=O)NCCN(C)CC (stereo not shown) ?
Result: 0.03

Q: What would you report for CCCCC/C=C\C/C=C\CCCCCCCC(=O)OCC(COC(=O)CCCC(=O)OC(CCCCCCCC)CCCCCCCC)COC(=O)NCCN1CCCCCC1 (stereo not shown) ?
Result: 0.02
